Experiment: NCI Yeast Anticancer Drug Screen. Data for the rad50 strain (AID 155);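 note: 0% = growth of vehicle-only cultures of the same strain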
Conditions: S. cerevisiae rad50 strain growth inhibition; at 5.0 µM (retest, dose inferred, filed as 0.5); hits give high values
The panel holds about 79,000 compounds, 15% with a hit somewhere; the sample as a whole holds those more often.
reported property: growth inhibition (%)
Write it as a number; the unit % goes unstated.

INSERT INTO measurements (molecule, reported_property, recorded_result) VALUES
  ('CCN(CC)CCNc1ccc2nc(C)n3c4ccc(OC)cc4c(=O)c1c23', 'growth inhibition', 84);

Reported growth inhibition, molecule O=[N+]([O-])c1cc[n+]([O-])c(Cl)c1 : ____ 9

So what does the record say about growth inhibition for Clc1ccc(/C(=C\c2ccccc2)Cn2ccnc2)cc1 ? 52

Reported growth inhibition for CC(C)[Si]1(C(C)C)OCC2OC(n3cnc4c(N)ncnc43)C(N)C2O[Si](C(C)C)(C(C)C)O1 (stereo unspecified) : what is it? 38

# input molecule: Nc1ccc(/C=C/c2ccc3cccnc3c2)cc1 ; wanted: its growth inhibition 5

Reported growth inhibition, molecule CC1(C)OC(=O)C(=Cc2ccc([N+](=O)[O-])s2)C(=O)O1 : ____ 28

Give the measured growth inhibition of NC(CS)C(=O)NCCNc1ccc(NCCNC(=O)C(N)CS)c2c1C(=O)c1c(O)ccc(O)c1C2=O (stereo unspecified) . 75

Need growth inhibition of O=C(/C(=C/c1ccc(O)cc1)c1ccccc1)c1ccccc1 , thanks. 27

Name the recorded growth inhibition for N#CCC(=O)N/N=C(\c1ccccc1)C(c1ccccc1)C1(O)C(=O)Nc2c(Cl)ccc(Cl)c21 (stereo unspecified) . 7

State the recorded growth inhibition for this entry: CS(=O)(=O)O.[Ag] 100

What does the record list as growth inhibition for CCOc1ccc2nc3ccccc3c(N)c2c1 ? 0

* * *

Assay: NCI Yeast Anticancer Drug Screen. Data for the rad50EPP+ strain (AID 151);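 note: 0% = growth of vehicle-treated control cultures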
Conditions: S. cerevisiae rad50 mutant strain, at 33.0 µM, hits give high values
The panel holds about 79,000 compounds, 15% with a hit somewhere; the sample as a whole holds those more often.
Response field class: string, computed from recorded growth inhibition by ranges bin 1 (below 10%), bin 2 (10% to below 30%), bin 3 (30% or more)

Class? Entry: CN(C)N=Nc1ccc(N(C)C)cc1 bin 3

Form field 'band' for O=S(=O)(NC1CCCC(c2ccccc2)C1)c1ccccc1 (stereo unspecified) bin 1

Given O=C(/C(=C/c1ccc(O)cc1)c1ccccc1)c1ccccc1 , name the class its growth inhibition places it in. bin 2

The entry to classify is COc1ccc(C(C)c2cc3c(cc2OCC(C)=O)OCO3)cc1 (stereo unspecified) ; which class holds it? bin 2

Bin? Cc1ccc(S(=O)(=O)NC(=O)C2C(=O)CC3(CCCCC3)CC2=O)cc1 bin 1

Which class holds Cc1ccc(NC(=O)CCC(=O)C(C)C(=O)c2ccccc2)c(C)c1 (stereo unspecified) ? bin 1

* * *

Test: NCI Yeast Anticancer Drug Screen. Data for the rad14 strain (AID 159);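 note: 0% = growth of vehicle-treated control cultures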
Conditions: S. cerevisiae rad14 strain growth inhibition; at 3.7 µM; hits give high values
The panel holds about 79,000 compounds, 15% with a hit somewhere; the sample as a whole holds those more often. Calls of active or inactive are those of the source. Rule as the data show it: active = growth inhibition above about 70%; inactive = the rest. Residues, ends and D or L forms follow the SMILES beside them. *: point of attachment. Fmoc = O=C(OCC1c2ccccc2-c2ccccc21)*; Boc = CC(C)(C)OC(=O)*
reported property: growth inhibition

INSERT INTO assay_data (compound, recorded_result) VALUES
  ('O=C1C2=C(c3ccccc31)C(c1ccccc1)N1C(=O)CSC1=N2 (configuration not stated)', '-17% (inactive)'),
  ('CC(=O)NC(c1nc2cc(C)c(C)cc2[nH]1)c1nc2cc(C)c(C)cc2[nH]1', '-21% (inactive)'),
  ('CCCCS(=O)(=O)Nc1ccc(Nc2c3ccccc3nc3ccccc23)c(OC)c1', '-25% (inactive)'),
  ('NC(N)=NC(N)=Nc1ccccc1 (tested in a mixture with another compound)', '-15% (inactive)'),
  ('CSC(=S)N/N=C/c1ccccc1', '-1% (inactive)'),
  ('CC(C)(C)OC(=O)NCCCCC(NC(=O)C(Cc1c[nH]c2ccccc12)NC(=O)OCC1c2ccccc2-c2ccccc21)C(=O)O (configuration not stated) (Fmoc-Trp-Lys(Boc)-OH; configuration not given here)', '0% (inactive)'),
  ('COC(=O)c1cnc(Cl)c([N+](=O)[O-])c1', '18% (inactive)'),
  ('Cc1ccc(S(=O)(=O)N/N=C/C(Br)=C(/Br)C(=O)O)cc1', '28% (inactive)');

Alright, here's another compound for you.
Look at this compound and give its reported growth inhibition. BrC1C2CCC3OC3C12 (configuration not stated) 3% (inactive)
